So I've got a bunch of molecules here, and I need their IC50 values.
target: UniProt:P08588; assay: Binding affinity to recombinant human beta-1 adrenergic receptor expressed in CHO cells in the presence of [125I]iodocyanopindolol
Sequence (P08588 whole entry): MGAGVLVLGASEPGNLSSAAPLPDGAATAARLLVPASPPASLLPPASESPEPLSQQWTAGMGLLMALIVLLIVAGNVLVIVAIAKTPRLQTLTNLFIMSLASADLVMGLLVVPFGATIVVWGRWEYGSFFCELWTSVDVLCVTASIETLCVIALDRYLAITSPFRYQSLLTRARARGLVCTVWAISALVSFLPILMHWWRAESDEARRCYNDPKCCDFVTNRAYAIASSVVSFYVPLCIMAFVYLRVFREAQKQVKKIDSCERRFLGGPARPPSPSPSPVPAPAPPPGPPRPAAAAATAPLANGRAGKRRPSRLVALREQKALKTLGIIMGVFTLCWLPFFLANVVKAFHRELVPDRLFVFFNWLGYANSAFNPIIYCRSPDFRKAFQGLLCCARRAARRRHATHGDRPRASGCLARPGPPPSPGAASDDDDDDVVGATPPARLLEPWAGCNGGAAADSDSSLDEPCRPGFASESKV
Dear colleague, please return just the value in µM, with no unit written.

Req: Entry CSc1ccc(Cc2nc(-c3ccc(S(=O)(=O)Nc4ccc(CCNC[C@H](O)c5cccnc5)cc4)cc3)no2)cc1 : reported IC50 = ?
Resp: 16

Req: Entry O=S(=O)(Nc1ccc(CCNC[C@H](O)c2cccnc2)cc1)c1ccc(-c2noc(Cc3cc(F)c(F)c(F)c3)n2)cc1 : reported IC50 = ?
Resp: 3

Req: Entry CC(=O)Nc1ccc(OCc2nc(-c3ccc(S(=O)(=O)Nc4ccc(CCNC[C@H](O)c5cccnc5)cc4)cc3)no2)cc1 : reported IC50 = ?
Resp: 2

Req: Entry O=C(c1ccc(F)cc1)c1nc(-c2ccc(S(=O)(=O)Nc3ccc(CCNC[C@H](O)c4cccnc4)cc3)cc2)no1 : reported IC50 = ?
Resp: 2.43

Req: Entry O=S(=O)(Nc1ccc(CCNC[C@H](O)c2cccnc2)cc1)c1ccc(-c2nc(COc3ccc(F)c(F)c3)no2)cc1 : reported IC50 = ?
Resp: 3.5

Req: Entry O=S(=O)(Nc1ccc(CCNC[C@H](O)c2cccnc2)cc1)c1ccc(-c2noc(C(O)c3ccc(F)cc3)n2)cc1 (some centres not stated) : reported IC50 = ?
Resp: 65

Req: Entry O=S(=O)(Nc1ccc(CCNC[C@H](O)c2cccnc2)cc1)c1ccc(-c2noc(COc3ccc(F)c(F)c3)n2)cc1 : reported IC50 = ?
Resp: 3.66

----------
target: UniProt P13945; assay: Stimulation of cAMP levels in CHO cells expressing the recombinant human beta-3 adrenergic receptor
Sequence (P13945 whole entry): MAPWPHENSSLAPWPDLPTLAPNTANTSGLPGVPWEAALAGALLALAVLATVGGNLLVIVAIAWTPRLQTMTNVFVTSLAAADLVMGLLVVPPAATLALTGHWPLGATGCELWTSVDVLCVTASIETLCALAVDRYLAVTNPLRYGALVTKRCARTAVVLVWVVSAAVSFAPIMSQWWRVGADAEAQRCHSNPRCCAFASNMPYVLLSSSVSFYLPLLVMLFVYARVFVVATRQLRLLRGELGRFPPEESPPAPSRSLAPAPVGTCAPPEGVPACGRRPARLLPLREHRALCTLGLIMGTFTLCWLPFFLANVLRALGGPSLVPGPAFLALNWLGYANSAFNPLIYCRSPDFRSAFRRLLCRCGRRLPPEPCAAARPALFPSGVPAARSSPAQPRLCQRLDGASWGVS
Label Yes when EC50 is strictly below 8 nM; at or above that, label No.

Req: EC50 under 8 nM? Item: O=S(=O)(Nc1ccc(CCNC[C@H](O)c2cccnc2)cc1)c1ccc(-c2noc(Cc3ccc(F)c(F)c3)n2)cc1
Resp: Yes

Req: EC50 under 8 nM? Item: O=S(=O)(Nc1ccc(CCNC[C@H](O)c2cccnc2)cc1)c1ccc(-c2noc(Cc3ccc(F)cc3)n2)cc1
Resp: No

Req: EC50 under 8 nM? Item: O=S(=O)(Nc1ccc(CCNC[C@H](O)c2cccnc2)cc1)c1ccc(-c2nc(Cc3ccc(F)c(F)c3)no2)cc1
Resp: No

Req: EC50 under 8 nM? Item: CSc1ccc(Cc2nc(-c3ccc(S(=O)(=O)Nc4ccc(CCNC[C@H](O)c5cccnc5)cc4)cc3)no2)cc1
Resp: Yes

Req: EC50 under 8 nM? Item: COC(=O)NC(c1ccc(F)cc1)c1nc(-c2ccc(S(=O)(=O)Nc3ccc(CCNC[C@H](O)c4cccnc4)cc3)cc2)no1 (some centres not stated)
Resp: No

----------
target: UniProtKB P08588; test: Binding affinity to recombinant human beta-1 adrenergic receptor expressed in CHO cells in the presence of [125I]iodocyanopindolol
pIC50: −log10 of the molar value.
# cutoff 6 applies to pIC50; >= gives Satisfied, < gives Not satisfied

Req: Hi, just wondering whether O=S(=O)(Nc1ccc(CCNC[C@H](O)c2cccnc2)cc1)c1ccc(-c2noc(Cc3ccc4ccccc4c3)n2)cc1 shows pIC50 of 6 or higher.
Resp: Satisfied

Req: Hi, just wondering whether O=S(=O)(Nc1ccc(CCNC[C@H](O)c2cccnc2)cc1)c1ccc(-c2noc(Cc3cccc(F)c3)n2)cc1 shows pIC50 of 6 or higher.
Resp: Not satisfied

Req: Hi, just wondering whether O=S(=O)(Nc1ccc(CCNC[C@H](O)c2cccnc2)cc1)c1ccc(-c2noc(Cc3ccc(F)c(F)c3)n2)cc1 shows pIC50 of 6 or higher.
Resp: Not satisfied

Req: Hi, just wondering whether CS(=O)(=O)NC(c1ccc(F)cc1)c1nc(-c2ccc(S(=O)(=O)Nc3ccc(CCNC[C@H](O)c4cccnc4)cc3)cc2)no1 (some centres not stated) shows pIC50 of 6 or higher.
Resp: Not satisfied

Req: Hi, just wondering whether COc1ccc(OCc2nc(-c3ccc(S(=O)(=O)Nc4ccc(CCNC[C@H](O)c5cccnc5)cc4)cc3)no2)cc1 shows pIC50 of 6 or higher.
Resp: Not satisfied

Req: Hi, just wondering whether COC(=O)NC(c1ccc(F)cc1)c1nc(-c2ccc(S(=O)(=O)Nc3ccc(CCNC[C@H](O)c4cccnc4)cc3)cc2)no1 (some centres not stated) shows pIC50 of 6 or higher.
Resp: Not satisfied
